test system: Mycobacterium smegmatis (ATCC11565, MS); assay: Minimal inhibitory concentration (MIC), MS; assay type: cell-based; conditions: Mycobacterium smegmatis ATCC11565
Would you kindly list MIC MS for each of these molecules?
Quick reminder: number only, in µg/mL, skip the unit.

## Input Indicate the recorded MIC MS value for this molecule: Cc1ccc(C(C)C)c(Oc2cc(Cl)ccc2NC(=O)c2cc(Br)cc(Br)c2O)c1 [Compound 202]
## Output 1

## Input Indicate the recorded MIC MS value for this molecule: Cc1ccc(C(C)C)c(Oc2ccc(Cl)cc2NC(=O)c2cc(Cl)cc(Cl)c2O)c1 [Compound 209]
## Output 0.5

## Input Indicate the recorded MIC MS value for this molecule: Cc1ccc(C(C)C)cc1Oc1ccc(Cl)cc1NC(=O)c1cc(Cl)ccc1O [Compound 205]
## Output 1

## Input Indicate the recorded MIC MS value for this molecule: Cc1ccc(C(C)C)c(Oc2ccc(Cl)cc2NC(=O)c2cc(I)cc(I)c2O)c1 [Compound 208]
## Output 2

## Input Indicate the recorded MIC MS value for this molecule: O=C(c1ccc(Cl)cc1)c1ccc(Oc2ccc(Cl)cc2)c(NC(=O)c2cc(I)cc(I)c2O)c1 [Compound 207]
## Output 32

## Input Indicate the recorded MIC MS value for this molecule: O=C(Nc1ccc(Oc2ccc(Cl)cc2)c(Cl)c1)c1cc(Br)cc(Br)c1O [Compound 122]
## Output 0.125

## Input Indicate the recorded MIC MS value for this molecule: O=C(Nc1cc(Cl)cc(C(=O)c2ccc(Cl)cc2)c1Cl)c1cc(Br)cc(Br)c1O [Compound 115]
## Output 0.25

## Input Indicate the recorded MIC MS value for this molecule: O=C(Nc1cc(Cl)cc(C(=O)c2ccc(Cl)cc2)c1Cl)c1cc(Cl)cc(Br)c1O [Compound 117]
## Output 0.25
